Where do these numbers come from? They come from patent US10183944B2.

molecular target: Syk (356-635 amino acids) catalytic domain (Homo sapiens (Human)); assay: Inhibition of enzymatic Syk kinase activity (radiometric); assay type: biochemical; conditions: read-out: IC50 Syk
pIC50: −log10 of the molar value. Structures can show the parent of a compound that is named as a salt.
Experimental readout: pIC50

See these solved cases before continuing.
Compound	Experimental readout	Recorded value
CC(C)(O)C(=O)N1CCN(c2ccc(Nc3nc(N4CCC(CC#N)CC4)nc4cn[nH]c(=O)c34)cc2)CC1	pIC50	> 8.00
CN(C)CCN1CCN(c2ccc(Nc3nc(N4CCCCCC4)nc4cn[nH]c(=O)c34)cc2)CC1	pIC50	> 8.00
CC1CN(c2nc(Nc3ccc(OCCN4CCNCC4)cc3)c3c(=O)[nH]ncc3n2)CC(C)O1 (stereo not drawn)	pIC50	< 7.00

Consider the following items and state reported pIC50 for each.
1. N#CCC1CCN(c2nc(Nc3ccc(N4CCN(CC(O)CO)CC4)cc3)c3c(=O)[nH]ncc3n2)CC1 (stereo not drawn)
2. CC(C)(C#N)C1CCN(c2ccc(Nc3nc(-c4ccccc4)nc4cn[nH]c(=O)c34)cc2)CC1
3. O=C(O)CN1CCCN(c2ccc(Nc3nc(N4CCCCC4)nc4cn[nH]c(=O)c34)cc2)CC1

1: > 8.00; 2: < 7.00; 3: > 7.30

Consider the following items and state reported pIC50 for each.
1. O=c1[nH]ncc2nc(N3CCCCCC3)nc(Nc3ccc(N4CCNCC4)cc3)c12
2. O=c1[nH]ncc2nc(N3CCCCCC3)nc(Nc3ccc(N4CCN(CCF)CC4)cc3)c12
3. N#CCC1CCN(c2nc(Nc3ccc(-c4nn[nH]n4)cc3)c3c(=O)[nH]ncc3n2)CC1
4. CCn1nnc(-c2ccc(Nc3nc(N4CCCCCC4)nc4cn[nH]c(=O)c34)cc2)n1
5. CCN1CCN(c2ccc(Nc3nc(N4CCC(CC#N)CC4)nc4cn[nH]c(=O)c34)cc2)CC1=O
6. O=c1[nH]ncc2nc(N3CCCC3)nc(Nc3ccc(CN4CCNCC4)cc3)c12 [Example 48, hydrochloride]
7. COc1ccc(-c2nc(Nc3ccc(CN4CCNCC4)cc3)c3c(=O)[nH]ncc3n2)cc1 [Example 41, hydrochloride]
8. O=C(O)CC1CCN(c2nc(Nc3ccc(CN4CCNCC4)cc3)c3c(=O)[nH]ncc3n2)CC1 [Example 43, hydrochloride]

1. > 8.00
2. > 8.00
3. > 7.30
4. < 7.00
5. > 8.00
6. > 7.00
7. > 7.00
8. > 7.30

Which pIC50 is listed for CN1CCN(C(=O)COc2ccc(Nc3nc(N4CCCCCC4)nc4cn[nH]c(=O)c34)cc2)CC1 ?
> 8.00

* * *

Give pIC50 for every item shown.
molecular target: Syk (356-635 amino acids) catalytic domain (Homo sapiens (Human)); assay: Inhibition of enzymatic Syk kinase activity (radiometric); format: biochemical; details: read-out: IC50 Syk
pIC50: −log10 of the molar value. Counter-ions that a name gives are not always drawn.

See these solved cases before continuing.
Compound	Assay target	pIC50
COc1nc(Nc2ccc(CN3CCNCC3)cc2)c2c(=O)[nH]ncc2n1 [Example 61, hydrochloride]	Syk (356-635 amino acids) catalytic domain (Homo sapiens (Human))	< 7.00
O=C(O)Cn1nnc(-c2ccc(Nc3nc(N4CCCCCC4)nc4cn[nH]c(=O)c34)cc2)n1	Syk (356-635 amino acids) catalytic domain (Homo sapiens (Human))	> 7.30
O=c1[nH]ncc2nc(N3CCCCCC3)nc(Nc3ccc(OCCN4CCNCC4)cc3)c12	Syk (356-635 amino acids) catalytic domain (Homo sapiens (Human))	> 8.00

Which pIC50 is listed for CN1CCN(CCn2cc(Nc3nc(-c4ccccc4)nc4cn[nH]c(=O)c34)cn2)CC1 ?
< 7.00
